Molecular target: T1, VirD-GABBR2 (human, UniProt O75899 42-941)
T1 construct: source: recombinant HSV-1 (UL27 locus); virions from infected cells (in most cases Vero), purified by sucrose cushion; also on infected Vero cells; not shown: V5, C-terminal, kept
T1 sequence: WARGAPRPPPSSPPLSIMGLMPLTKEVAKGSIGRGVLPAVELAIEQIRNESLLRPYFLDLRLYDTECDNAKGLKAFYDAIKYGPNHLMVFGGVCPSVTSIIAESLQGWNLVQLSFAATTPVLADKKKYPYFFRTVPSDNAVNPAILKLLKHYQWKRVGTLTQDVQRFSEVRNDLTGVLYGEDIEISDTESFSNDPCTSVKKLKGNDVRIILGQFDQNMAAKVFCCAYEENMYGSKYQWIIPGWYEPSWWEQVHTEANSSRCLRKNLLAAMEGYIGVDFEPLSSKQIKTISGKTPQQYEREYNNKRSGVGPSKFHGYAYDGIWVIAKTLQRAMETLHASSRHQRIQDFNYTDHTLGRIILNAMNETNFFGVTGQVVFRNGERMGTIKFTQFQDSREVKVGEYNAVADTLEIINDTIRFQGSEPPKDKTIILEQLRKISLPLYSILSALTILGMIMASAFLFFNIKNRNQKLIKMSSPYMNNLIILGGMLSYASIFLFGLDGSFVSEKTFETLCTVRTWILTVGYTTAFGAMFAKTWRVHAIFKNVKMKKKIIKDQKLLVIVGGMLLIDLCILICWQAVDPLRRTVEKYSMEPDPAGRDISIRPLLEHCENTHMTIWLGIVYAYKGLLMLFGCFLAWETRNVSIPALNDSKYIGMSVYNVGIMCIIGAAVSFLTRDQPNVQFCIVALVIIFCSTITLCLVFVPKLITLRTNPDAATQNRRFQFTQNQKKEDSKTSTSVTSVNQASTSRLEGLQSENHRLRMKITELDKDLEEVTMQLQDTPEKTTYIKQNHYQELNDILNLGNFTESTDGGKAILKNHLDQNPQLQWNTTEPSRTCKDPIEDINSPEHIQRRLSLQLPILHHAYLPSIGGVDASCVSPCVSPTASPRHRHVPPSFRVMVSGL
Experiment: virion-oscillator (plasmonic imaging, SPR read-out); VirD-GPCR virions tethered to a gold chip by a PEG linker and driven by a sinusoidal potential (5 Hz); label-free SRIF-14 perfused at several doses; first-order kinetics model
Conditions: one partner purified
No end group written: not given here.
measurement_type: Kd (nM)
Answers are plain numbers, in nM.

What does the data say about its Kd? Entry: AGCKNFFWKTFTSC (not fully specified (bridges); ends and bridges not checked, somatostatin-14 (SRIF-14), cut product of the somatostatin precursor; also called cold SRIF-14; SIRF-14; source: bought: AnaSpec (peptide)) [somatostatin-14 (SRIF-14), unlabeled]
400
